method-summary: Plasma concentration in Sprague-Dawley rat at 2 mg/kg, po administered as single dose measured after 9 hrs by LC-MS/MS analysis
Assay type: ADME, organism-based
assay-metric: concentration at 9 h (ng/mL)
Just the number please, in ng/mL, no unit attached.

Consider the molecule Fc1ccc(N2CCN(CCCc3c[nH]c4ccc(F)cc34)CC2)c(-c2ccccc2)c1 and give its measured concentration at 9 h. 34.9

---

method-summary: AUC (0 to infinity) in Sprague-Dawley rat at 2 mg/kg, po administered as single dose by LC-MS/MS analysis
Format: ADME, organism-based
Set-up: dose 2 mg/kg, time infinity, route oral
condition-description: in vivo
assay-metric: AUC(0-inf)

Can you look up the measured AUC(0-inf) of Fc1ccc(N2CCN(CCCc3c[nH]c4ccc(F)cc34)CC2)c(-c2ccccc2)c1 for me? 898 ng·h/mL
